- Tested on: RAW264.7
- protocolSummary: Inhibition of LPS-stimulated ROS production in mouse RAW264.7 cells after 22 hrs by C-400 fluorescent dye-based assay
- Type: functional, cell-based
- conditionDetails: RAW264.7, 22 h
pIC50: −log10 of the molar value.

[
  {
    "compound": "COc1cc(-c2[o+]c3cc(O)cc(O)c3cc2O)cc(OC)c1O [MALVIDIN CHLORIDE]",
    "systemTested": "RAW264.7",
    "pIC50": 5.05
  }
]
